- Test system: C. glabrata
- Assay Text: Checkerboard FIC assay in combination with fluconazole (MIC alone and in combination, FICI)
- Type: cell-based, Candida glabrata
- Measurement Context: C. glabrata; FICI using a fluconazole MIC of 128 μg/mL
Endpoint Name: FICI of combination resulting in fluconazole MIC of: 2 ug/mL (value in parenthesis)

1. O=C(Cc1ccc(CCCC(F)c2ccccc2)cc1)NO (centres unmarked) = 0.266
2. CN(C)CCSCC(=O)Nc1cccc(CCCCc2ccc(CC(=O)NO)cc2)c1 = 0.141
3. COCCOCCOCCNS(=O)(=O)c1ccc(CCCCc2ccc(CC(=O)NO)cc2)cc1 = 0.266
4. O=C(Cc1ccc(CCCCc2ccc(-c3ccccc3)cc2)cc1)NO = 0.078
5. CN1CCC(C(=O)Nc2cccc(CCCCc3ccc(CC(=O)NO)cc3)c2)CC1 = 0.266
6. O=C(Cc1ccc(CCCCc2cccc(NC(=O)NCCN3CCOCC3)c2)cc1)NO = 0.266
7. COc1ccc(CCCCc2ccc(CC(=O)NO)cc2)cc1 = 0.516
8. Cn1ccc2cc(CCCCc3ccc(CC(=O)NO)cc3)ccc21 = 0.266
9. O=C(Cc1ccc(CCCC(=O)c2ccccc2)cc1)NO = 0.266
10. CN1CCC(C(=O)Nc2ccc(CCCCc3ccc(CC(=O)NO)cc3)cc2)CC1.Cl = 0.266
11. O=C(Cc1ccc(CCCCc2ccc(O)c(O)c2)cc1)NO = 0.266
12. O=C(Cc1ccc(CCCCc2ccc(OCCCN3CCOCC3)cc2)cc1)NO = 0.266
13. COCCOCCOCCOCCOCCOc1ccc(CCCCc2ccc(CC(=O)NO)cc2)cc1 = 0.266
14. O=C(Cc1ccc(CCCCc2ccc(C(=O)N3CCN(CCn4ccnc4)CC3)cc2)cc1)NO = 0.266
15. COCCOCCOCC(=O)Nc1cccc(CCCCc2ccc(CC(=O)NO)cc2)c1 = 0.266
16. CC(C(=O)NO)c1ccc(CCCCc2ccccc2)cc1 (centres unmarked) = 0.256
17. O=C(Cc1ccc(CCC(O)Cc2ccccc2)cc1)NO (centres unmarked) = 0.516
18. O=C(Cc1ccc(CCCCc2ccc(C(=O)N3CCN(C/C=C/c4ccccc4)CC3)cc2)cc1)NO = 0.516
19. Nc1ccccc1CCCCc1ccc(CC(=O)NO)cc1 = 0.266
20. COCCOCCOCCNC(=O)c1ccc(CCCCc2ccc(CC(=O)NO)cc2)cc1 = 0.266
21. CC(=O)Nc1cccc(CCCCc2ccc(CC(=O)NO)cc2)c1 = 0.266
22. COCCOCCOCCOCCC(=O)Nc1ccc(CCCCc2ccc(CC(=O)NO)cc2)cc1 = 0.266
23. O=C(Cc1ccc(CCCCc2ccc(C(=O)N3CCOCCOCCOCCOCCOCC3)cc2)cc1)NO = 0.266
24. CN(C)CCSCC(=O)Nc1ccc(CCCCc2ccc(CC(=O)NO)cc2)cc1 = 0.516
25. COCCOCCOCC(=O)Nc1ccc(CCCCc2ccc(CC(=O)NO)cc2)cc1 = 0.266
26. CC(CCCc1ccc(CC(=O)NO)cc1)c1ccccc1 (centres unmarked) = 0.516
27. O=C(Cc1ccc(CCCCc2ccccc2NC(=O)CO)cc1)NO = 0.516
28. O=C(Cc1ccc(C(O)CCCc2ccccc2)cc1)NO (centres unmarked) = 0.266
29. O=C(Cc1ccc(CCCCc2ccc(NC(=O)CO)cc2)cc1)NO = 0.266
30. O=C(Cc1ccc(CCCCc2ccc(NS(=O)(=O)CCN3CCOCC3)cc2)cc1)NO = 0.266
31. O=C(Cc1ccc(CCC(F)Cc2ccccc2)cc1)NO (centres unmarked) = 0.516
32. O=C(Cc1ccc(CCCCc2ccc(NC(=O)NCCN3CCOCC3)cc2)cc1)NO = 0.516
33. CC(C(=O)NO)c1ccc(CCC(O)Cc2ccccc2)cc1 (centres unmarked) = 0.141
34. Nc1ccc(CCCCc2ccc(CC(=O)NO)cc2)cc1 = 0.266
35. O=C(Cc1ccc(CCCCc2ccc(C(=O)NCCCn3ccnc3)cc2)cc1)NO = 0.141
36. COC(=O)Nc1ccc(CCCCc2ccc(CC(=O)NO)cc2)cc1 = 0.141
37. CC(=O)Nc1ccc(CCCCc2ccc(CC(=O)NO)cc2)cc1 = 0.266

Hello, the source for this data is patent US20140081017A1, in case you need it.
